Reference for the values: patent US20140113854A1

Molecular target: Human α-thrombin (human, UniProt P00734 328-363; P00734 364-622)
Assay: inhibition of thrombin-catalysed hydrolysis of chromogenic substrate S-2366, 37 °C
No end group written: not given here.
Metric: Ki (nM)
Answers are plain numbers, in nM.

Input line: I have this binder here, IRFTDGEGTGSGSGSGSGDFEEIPEEYLQ (ends and bridges not checked, GEGT(GS)4 linker; comparative control) [MH2-GS] , and I need its recorded Ki.
Output line: 60
